Source listed as patent US4939137A.

- test-system: alpha-1 adrenergic receptor
- protocol-text: Brain Alpha-1 Radioreceptor Assay (3H-prazosin)
- study-conditions: guinea pig brain membranes, 30 minutes, 30° C., read-out: RECEPTOR BINDING ALPHA-1 (IC50)
Rule: IC50 below 40 nM gives met. Equal to or above 40 nM gives not met.

# count of solved cases: 4
>>> df
                                   molecule                  test_system  label_class
0  COc1ccccc1N1CCN(CCn2c(=O)c3csc4c3n(c2=O)CCC4NC(=O)c2ccccc2)CC1 (centres unmarked)  alpha-1 adrenergic receptor          met
1  COc1ccccc1N1CCN(CCn2c(=O)c3csc4c3n(c2=O)CCNC4=O)CC1  alpha-1 adrenergic receptor      not met
2  COc1ccccc1N1CCN(CCn2c(=O)c3csc4c3n(c2=O)CCC4N)CC1 (centres unmarked)  alpha-1 adrenergic receptor          met
3  COc1ccccc1N1CCN(CCCCn2c(=O)c3csc4c3n(c2=O)CCC4=O)CC1  alpha-1 adrenergic receptor          met

Quick check: does COc1ccccc1N1CCN(CCn2c(=O)c3csc4c3n(c2=O)CC=C4)CC1 have IC50 under 40 nM?
met

* * *

- test-system: 5HT2 receptor (Rattus norvegicus, UniProt P14842)
- Sequence (P14842 whole entry): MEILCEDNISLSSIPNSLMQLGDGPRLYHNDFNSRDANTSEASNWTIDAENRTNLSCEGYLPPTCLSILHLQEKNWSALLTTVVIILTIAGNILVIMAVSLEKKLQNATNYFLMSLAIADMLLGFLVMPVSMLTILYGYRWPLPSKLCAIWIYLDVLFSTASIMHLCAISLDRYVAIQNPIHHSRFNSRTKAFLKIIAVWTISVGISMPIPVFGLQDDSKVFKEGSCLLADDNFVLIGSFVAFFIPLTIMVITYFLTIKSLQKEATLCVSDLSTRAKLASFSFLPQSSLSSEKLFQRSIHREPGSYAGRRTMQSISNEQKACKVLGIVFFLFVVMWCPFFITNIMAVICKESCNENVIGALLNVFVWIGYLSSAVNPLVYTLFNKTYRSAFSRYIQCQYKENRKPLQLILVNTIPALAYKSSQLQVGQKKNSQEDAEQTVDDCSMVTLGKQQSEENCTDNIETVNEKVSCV
property-measured: IC50
Don't forget the unit after the value.

Would you please look over these solved cases?
In [3]: df
Out[3]:
                                   molecule  property_measured  readout_value
0  COc1ccccc1N1CCN(CCn2c(=O)c3scc4c3n(c2=O)CCC4=O)CC1 [Example 14]               IC50        1500 nM
1  O=C1CCn2c(=O)n(CCN3CCC(=C(c4ccc(F)cc4)c4ccc(F)cc4)CC3)c(=O)c3csc1c32 [Example 20]               IC50         180 nM
2  COc1ccccc1N1CCN(CCn2c(=O)c3csc4c3n(c2=O)CCC4N)CC1 (stereo not shown) [Example 38]               IC50         800 nM

Here's the next entry for you.
Documented IC50 of O=C1CCn2c(=O)n(CCCCN3CCC(C(=O)c4ccc(F)cc4)CC3)c(=O)c3csc1c32 [Example 42] : 630 nM

* * *

Measured % INHIB OF PHENYLEPHRINE RESPONSE accompanies every entry in the list below.
- Test system: alpha adrenergic receptor
- protocol-text: Alpha-1 Adrenergic Blockage: Inhibition of Phenylephrine-Induced Increases in Blood Pressure in the Anesthetized Dog
- Format: in vivo
- study-conditions: dose 0.03 mpk, i.v., phenylephrine 10 μg/kg
- Text: Dogs were anesthetized and bilaterally vagotomized. A femoral artery and vein were cannulated for detection of diastolic blood pressure and drug administration, respectively. Percent inhibition of alpha adrenergic receptor antagonism was quantified by determining dose-response (increase in diastolic pressure) relationship of phenylephrine before and after various doses of the antagonist.
Answer with a number only, understood to be in %.

// worked examples, % INHIB OF PHENYLEPHRINE RESPONSE included
In [3]: df
Out[3]:
                                   compound  readout_value
0  COc1ccccc1N1CCN(CCn2c(=O)c3csc4c3n(c2=O)CC=C4)CC1             98
1  O=C1CCn2c(=O)n(CCN3CCN(c4ccccc4)CC3)c(=O)c3csc1c32             88
2  COc1ccccc1N1CCN(CCn2c(=O)c3csc4c3n(c2=O)CCC4OC(C)=O)CC1 (centres unmarked)            100
3  CCCCCC(=O)OC1CCn2c(=O)n(CCN3CCN(c4ccccc4OC)CC3)c(=O)c3csc1c32 (centres unmarked)             90
4  COc1ccccc1N1CCN(CCn2c(=O)c3c(C)sc4c3n(c2=O)CCC4=O)CC1             88
5  COc1ccccc1N1CCN(CCn2c(=O)c3csc4c3n(c2=O)CCC4O)CC1 (centres unmarked)             96
6  O=C1CCn2c(=O)n(CCN3CCN(c4ccccc4Cl)CC3)c(=O)c3csc1c32             55
7  COc1ccccc1N1CCN(CCn2c(=O)c3csc4c3n(c2=O)CCC4OC(=O)c2ccccc2)CC1 (centres unmarked)             89
8  CON=C1CCn2c(=O)n(CCN3CCN(c4ccccc4OC)CC3)c(=O)c3csc1c32             72
9  COc1cccc(N2CCN(CCn3c(=O)c4csc5c4n(c3=O)CCC5=O)CC2)c1             41

Reported % INHIB OF PHENYLEPHRINE RESPONSE ( Cc1ccccc1N1CCN(CCn2c(=O)c3csc4c3n(c2=O)CCC4=O)CC1 ) = 83

For record COc1ccc(N2CCN(CCn3c(=O)c4csc5c4n(c3=O)CCC5=O)CC2)cc1 the listed % INHIB OF PHENYLEPHRINE RESPONSE is 40

Entry COc1ccccc1N1CCN(CCn2c(=O)c3csc4c3n(c2=O)CCC4=O)CC1 ; % INHIB OF PHENYLEPHRINE RESPONSE = 86

The compound listed as CCCC(=O)OC1CCn2c(=O)n(CCN3CCN(c4ccccc4OC)CC3)c(=O)c3csc1c32 (centres unmarked) shows % INHIB OF PHENYLEPHRINE RESPONSE equal to 100
